# Method: protease stability score; higher = more stable; yeast display proteolysis, trypsin and chymotrypsin;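 further: relative to predicted unfolded state with 0 unfolded-like and 1 meaning tenfold more protease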
I'd appreciate it if you could supply protease stability score values for the items below.
Just the number.

# input sequence: SEEHEMLKRIMELVIHLFLTGNEDWLRELIDPDTRLHINGVDNHGREEAIRWLHEYNKHLRIHTMEIKRLDVVNGQAHSHVHHEWTINGKQHETEMELIVVVVNGKVKSQELRIK ; wanted: its protease stability score 0.629

# input sequence: DEDEEAARHFLEQWLEALLTGDEETLTKLLDPHTRLIVDGQELVGRELWLEFFKRIKNMKIHRTEIRHTTSIGDKITLNIHVDVEVDGKRRRFDVQYVILKVNGRWLLKQVNNH ; wanted: its protease stability score 0.498

# input sequence: DEHEHAFRIIAEMLVEAMKTGNEETFSRLFDPNVRITWNGRHNHGRENYVEFIRQIRVDDLHIVLEDVRVIDGVIEVHGKMRIHGIVNGRRDEFIWESRVVIVKIDGRWHIESIRFD ; wanted: its protease stability score 1.09

# input sequence: DLDNILMKLFLKEVEEVERTGDERLIHELADPNVRVEQGDKKFHGRHEAVRIYMELGIKHSRLTDVKFFEGHVLIHVRIHVDGRDIDLTIFMHKIDGRWIIKSMKQD ; wanted: its protease stability score 1.16

# input sequence: SDLDEEARRWLEKHLKNFFTGDWDKFMNNVDPNVRYIVGDKHKIGMESFSKDEKEHRDQYDHLEFRIHHEDTYGEKAVSDMHVTYHINGREIRRRVHLSFLVINGKIKSVRIEFE ; wanted: its protease stability score 0.469

# input sequence: SEDERDAKMFIDLLNEAMHTGDEQIIKDLVDPHVKIFVGDKIYIGWERYRHMLEEIRIHRWDSEIKRYRVFDGRLEVEGVLHFDVEVNGKRREISTHVELHFDKFDGRWIVREISVH ; wanted: its protease stability score 1.76

# input sequence: SHHEEHLHEMLRLILEAWETGDEDFLEELADPRVQLIVNGKDIHGRHVFRTMLRTHIEQMRIKRVTPRRVRNYDGRVESDIEVDGIIDGQRRKYRTTWVVEIIDGRVESLSLHFI ; wanted: its protease stability score 0.723

# input sequence: SEEEEQFKKVFEIVIRFIITGDEHSMLKNADPNARLEIGDKEVIGMENLLERLTRIIDQFKNVRIEFHVKDHDLQGDKLHLETEIVLKFDGRELRIILHIVWTKINGRWIITSLSER ; wanted: its protease stability score 1.17

# input sequence: SEEEKLTREFAEMWRHTIETGDEEEMWRMADPNVRVDFDGKELHGRELFQEHFRKLGVDHFIVRRIHVQGEKLRIDGSHIYNGQHIHTELISQKVNGRWIIDQVKVH ; wanted: its protease stability score 1.36

# input sequence: DEDKHLARHLVDLIWESLKTGNEKLSKSLADPNVRIIVGDKEVVGRERVEKWLEKVMHEIRVKDLDERHVDVQGDKVNVYVDIHGNFDGKDDTTHFYFDIKKVNGVWLIERYEVH ; wanted: its protease stability score 0.958

# input sequence: DELEHLLREFFRLWKTAVETGDFRMLLELADPHVKQHIGDKTFVGWERLIESIERIVHEMRITEVTFTQVQVQGDYAHVDLRVFSEVGDKHLILKVELFLLKVNGRWVLESLRVE ; wanted: its protease stability score 1.62

====

# Method: protease stability score; higher = more stable; yeast display proteolysis, trypsin and chymotrypsin;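 further: relative to predicted unfolded state with 0 unfolded-like and 1 meaning tenfold more protease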
Observation Type: protease stability score
Just the number.

# input sequence: SEEHKRIEKLLRRLQDALKTGDERDIMNLLDPNVRIEINGKDLIGREVWAKIMHHLRVEDSEINIHHSRSQGNFLESDIETHRHIHVDGKDIDLTWEEHVVIIKVDGKWKIERVHIR ; wanted: its protease stability score 1.17

# input sequence: DEENKVLEHMIRLIHHDRSTGDEKVLLKLFDPHARFIYHYGDKEIHLHGRKEITDLLVKLHRHIRVDRLHIDHWEFHGDKMHIDHTTRMNVNGREMETRIDLIITIIDGVIHSIEIRQR ; wanted: its protease stability score 1.19

# input sequence: SEDEREAIRFLELWVRESRTGDEDSTDRLADPHTRVEFENHHSVGREHAVTFLIHLRTHHFEIHEVQVFNGRIEMRLHVDGIFNGRRYRSDVLLVVLKIDGQWLLHSIRFH ; wanted: its protease stability score 1.52

# input sequence: DEDRRDIDDFLRLMLEATHTGDFKSFLELADPNMRIQIGDKEMVGRENIERWFEEDHRQAGIQRVETELRVRSKLLIGNKMHVDIEIRRRYNGVEEVYDVELILLKYNGVWWLEEFRVR ; wanted: its protease stability score 1.58

# input sequence: DEEEKEMKEIMHMLDHWLRTGDEETLNHYLDPNVRLIIFIDGRNLTSIGREESRELWRYVVEEWRIHDMHVTEVRSQGDKAESNTRLKGHVNGVERTLIQHIEVDVVDGRIKRIIIRVH ; wanted: its protease stability score 2.1

====

# Method: protease stability score; higher = more stable; yeast display proteolysis, trypsin and chymotrypsin;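 further: relative to predicted unfolded state with 0 unfolded-like and 1 meaning tenfold more protease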
Kindly return class 1 if reported protease stability score is no lower than 1; return class 0 if it is lower.

Is protease stability score for DEHRKLIEELAEKLIEALWTGDERRIRELADPNVRMDYGEFKIHGRDLMVETLKHEMKKFKNVRLINHHVTVQGEFINIDMEVRFDGVSHRVEHNWDVVNGVVKEVRIEKN at or above 1? class 1

Is protease stability score for DEDRRDAEEFIRLFHEAVQTGDEDTLRKFIDPRARIDVNGRILHGREEYLEWMREVLRFFKNVRFEVDLHDVKIVGDKIHVDTTLWTHFNGRDLELKTRVHLEKVNGVWRIKRIDFE at or above 1? class 0

Is protease stability score for DEEEKDAKEIFRLSHDWWRTGDEMLIHMNFDPNVRLRIGDKSSHGREDVARIIVKVYKDFGVKHFEIREVDHQGEKIKLDGVSNFNGKEVKIEISSNKVNGVWVIKEVNIQ at or above 1? class 1

Is protease stability score for NHEEEHAKTLFEEWLRVLLTGDWKMFSHLADPHTRIHIGNKDIHGRDLFVELVIRELEEIRVILIVEELSAQGDKSRMRTRLIIRQGEFEHRTELRLEIVFVDGKFTSIHLRHK at or above 1? class 0

Is protease stability score for DESDKEREDVFRSWIESMRTGDEKNMRELMDPHARTEIGDKEYHGREVVEYIRREWRITHVELHRIEKQGDKIISHGHDEINIDGRKLYIHSRIIARKVNGVWIIESLEFH at or above 1? class 1

Is protease stability score for SEEEEATKEMSRLVLENLKTGDFDAFHRLFDPNAKLDVGDKHFHGREQIHEWYLHVREELGVDVSRVHEKHIQVIGNKVILHGELHLRIGDKRDDTTMWIVSKKFDGRWILSSMRIS at or above 1? class 1

====

I'd appreciate it if you could supply protease stability score values for the items below.
# Method: protease stability score; higher = more stable; yeast display proteolysis, trypsin and chymotrypsin;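 further: relative to predicted unfolded state with 0 unfolded-like and 1 meaning tenfold more protease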
Just the number.

# input sequence: DEVERWAKEIAELFLKLYLTGNWKNLERLLDPHMQFIIDGVRIHGREEMREFIRHEREFFKGMRHEITDSHVDVQGEKVEVHLHIEVIVNGQKHVRHINLHIEKIDGQWLIKLVIIHHE ; wanted: its protease stability score 1.26

# input sequence: REEEKMMRHIFRLDVILELTGDEEKWKHYADPNVRVIFIFENVHIEHHGRDAWVRLLHHMRIDRIIIHRLRVFENHNQADTFVKGEINGRELDMETHFYVLVINGRRKEVELEVR ; wanted: its protease stability score 1.46

# input sequence: DEEEKYSKEANTMSRHLVETGDEEIMSKLLDPDVRNDVDGVEFHGRELLSRILKEWRVRFESMHIEDEELQGDKVIVHGRELVRMIYDGKTFNTERKVIFIVVKINGRWFIKEVKVL ; wanted: its protease stability score 0.751

# input sequence: DEEEEHFKWLVKLIFDAYLTGDEEVLYERADPNVRIDFNGVELHGREEMQRHLEHLMKKFKGLRIELKHFHIQGDKMFFQTEYRYNGKTVEARLFFDVVNGRLKRIIIEHR ; wanted: its protease stability score 1.48

# input sequence: DDWEEVLKDFLKKYFEALHTGNEELFLLMLDPHVKFDWNGQKMVGREKEIETLRREIKSAGVTRIERELEIKDTRLVDGRLRIDLSIHLNFNGRKFEIDVELHLNKINGRWEIESIKYR ; wanted: its protease stability score 1.15

# input sequence: TEEYRHVEEVIRMTFELLRTGNEQELEDRADPHAKSNVNGQEIHGRERFTRWFLEMITHLGVKHVRVRHYTVVNGRVIVHLEFDFDGVKIDYTVVIWKINGKWFIKISHEEHH ; wanted: its protease stability score 2.09

# input sequence: DETTELAREAIELLVKSLRTGDWDTSSRLLDPHTRYHYGEFNSHGREMFIISLEFLWKHLRIEDVHITHIRSIGDKVDVDTVLRVNVNGQVVDVEFFIHAHKVNGKWLYTEIRVR ; wanted: its protease stability score 1.16

# input sequence: DEDTLIAKEIAELIIHALLTGDEDILKRLMDPTVKNDVNGVEFHGREILYKLLLEMRIHRVEYTHIDMRIYNGRAEVRIHGKIHVTINGVHDDKERRIDIIIVKINGKWTIESFVVHRL ; wanted: its protease stability score 2.53

# input sequence: DEDEHFAENIIRILLHLIVTGDEDQLERLIDPHVKVTIGDKEFHGRLADEILREEIRIKRVHLRDFRIVNGRAESRFKLVGNWNGVETEFTKSVYIDKINGRWIITERHIT ; wanted: its protease stability score 1.16

# input sequence: SEEEEENRKRVEFFKKVWETGDEHSMEELMDPNVRLRIVVNGRHEHYHGREEVVHILQDELRKIKNVKVNLKRIDVVDGRAHSDIHVDQGDWRMKMEVILIKVNGRWRMKELELHVI ; wanted: its protease stability score 1.78

# input sequence: TELEELMIKIIRLILRSHNTGDEDEQRKLLDPHVRWHIGDKEIHGRDLIIEHLKEVYERIDHIEFRENHVDIQGEKLHLDGRLIFIQGDKNIEFRVHYHFLIIDGVVDLIEVQIR ; wanted: its protease stability score 1.5
